Where these numbers come from: ChEMBL document CHEMBL1201862

system: RPMI-8226; experiment: NCI tumour cell line growth inhibition, 48 h
The source made the active and inactive calls. No stated cut-off is given here; in the data, active = GI50 up to about 1.1 µM and inactive = higher.
MEASURE NAME: GI50

The following compounds have reported results that may help.
COMPOUND: O=C1ON(Cc2ccccc2)C(c2ccccc2)N1c1ccccc1 (stereo unspecified)
REPORTED MEASUREMENT: > 100 µM (inactive)
--
COMPOUND: O=c1[nH]nc(Cc2ccccc2)n1/N=C/c1cccs1
REPORTED MEASUREMENT: 47.1 µM (inactive)

IN: # get_value(readout= GI50, system= RPMI-8226) for CCOC(=O)C12CCCC1(O)N(NC(=O)c1ccccc1)C(C)=C2C(=O)OC (stereo unspecified)
OUT: > 100 µM (inactive)

IN: Also O=NN1C(c2ccccc2)CCCC1c1ccccc1 (stereo unspecified) ?
OUT: 21.7 µM (inactive)

IN: Also CN/N=C(\C)C(CN(C)C)C(c1ccccc1)c1c(O)c2ccccc2oc1=O (stereo unspecified) ?
OUT: 42 µM (inactive)

IN: Also CC(C)(C)/N=N/C(C)(C)N=C=O ?
OUT: > 100 µM (inactive)

###

test system: TK-10; test: NCI tumour cell line growth inhibition, 48 h
Calls of active or inactive are those of the source. No stated cut-off is given here; in the data, active = GI50 up to about 1.1 µM and inactive = higher.
Overview of reported GI50 across a group of molecules:

The following molecules have reported results that may help.
MOLECULE: N=C(N)NCCCC(NC(=O)c1cccc2c(=O)c3ccccc3[nH]c12)C(=O)O (stereo unspecified)
TARGET: TK-10
MEASURE NAME: GI50
REPORTED MEASUREMENT: > 100 µM (inactive)
--
MOLECULE: COc1cc(OCc2ccc3nc(OC)c(OC)nc3c2)cc(OC)c1OC
TARGET: TK-10
MEASURE NAME: GI50
REPORTED MEASUREMENT: > 10 µM (inactive)
--
MOLECULE: N#CC1=C(C#N)/C(=C(\C#N)C(C#N)C#N)N=C1N
TARGET: TK-10
MEASURE NAME: GI50
REPORTED MEASUREMENT: > 32.6 µM (inactive)
--
MOLECULE: Cc1ccc(S(=O)(=O)NCc2cccc([N+](=O)[O-])c2)cc1
TARGET: TK-10
MEASURE NAME: GI50
REPORTED MEASUREMENT: > 100 µM (inactive)
--
MOLECULE: Cc1ccc(Nc2n[nH]c(NS(=O)(=O)c3cc(C(=O)Nc4ccc(Cl)cc4)c(Cl)cc3S)n2)cc1
TARGET: TK-10
MEASURE NAME: GI50
REPORTED MEASUREMENT: > 100 µM (inactive)
--
MOLECULE: CC1CC(=O)C(C(O)CC2CC(=O)N(c3ccccc3)C(=O)C2)C(C)C1 (stereo unspecified)
TARGET: TK-10
MEASURE NAME: GI50
REPORTED MEASUREMENT: > 100 µM (inactive)

IN: # get_value(readout= GI50, system= TK-10) for Cc1ccc2nc3n(c2c1)C(c1c(F)cccc1F)SC3 (stereo unspecified)
OUT: > 100 µM (inactive)

IN: Also CCOC(OC1=C(C#N)CCCC1)C(CC)[Se]c1ccccc1 (stereo unspecified) ?
OUT: > 100 µM (inactive)

IN: Also CCCCCC(=O)CCCCCCCC(O)CC(=O)OCC (stereo unspecified) ?
OUT: > 100 µM (inactive)

IN: Also Cc1cc(N2CCOCC2)nc2ccc(Cc3ccc4nc(N5CCOCC5)cc(C)c4c3)cc12 ?
OUT: 29.4 µM (inactive)

IN: Also CC(C)=NNC(=S)NC12CC3CC(CC(C3)C1)C2 ?
OUT: > 100 µM (inactive)

###

tested on: UO-31; experiment: NCI tumour cell line growth inhibition, 48 h
Activity calls are given as the source filed them. Cut-off read from the data, not from the text of the source: active = GI50 up to about 1.1 µM and inactive = higher.
Respond with a class label; see Y (active), N (inactive)

MOLECULE: CN(C)c1ccc(C(=NNC(=O)c2cc3ccccc3[nH]2)c2ccc(N(C)C)cc2)cc1
QUALITATIVE LABEL: Y
//
MOLECULE: CCN(CC)C(=S)/N=C(\SC(=S)N(CC)CC)c1ccccc1
QUALITATIVE LABEL: N
//
MOLECULE: CC(=O)OCC1OC(n2c3c(c(-c4ccc(Cl)cc4)c(C#N)c2=S)C(=O)CC(C)(C)C3)C(OC(C)=O)C(OC(C)=O)C1OC(C)=O (stereo not given)
QUALITATIVE LABEL: N

IN: # lookup: test call for COc1ccc(C(=O)CC2=Nc3nnc(CCCCCCCc4nnc5n4C(=O)C(CC(=O)c4ccc(OC)cc4)=N5)n3C2=O)cc1
OUT: N

IN: Also COc1ccc(-c2cc(-c3cc(OC)c(OC)c(OC)c3)cc(-c3cc4ccccc4oc3=O)n2)cc1 ?
OUT: N

IN: Also CCC(=O)Nc1ccc(NCC(=O)Nc2ccc(Cl)cc2)cc1 ?
OUT: N

IN: Also CCOC(=O)NNC(=O)C1CSC(c2ccccc2)N1C(C)=O (stereo not given) ?
OUT: N

IN: Also Cc1ccc(-c2cc(-c3ccco3)c(C#N)c(=S)[nH]2)cc1 ?
OUT: N

IN: Also N#CC1(C#N)C(=O)c2ccncc2C1=O ?
OUT: N

IN: Also O=[N+]([O-])c1ccc(N2CCC(CCCC3CCN(c4ccc([N+](=O)[O-])cc4[N+](=O)[O-])CC3)CC2)c([N+](=O)[O-])c1 ?
OUT: N

IN: Also Cc1[nH]c2ccccc2c1C1=CC(=O)N(c2ccccc2)C1=O ?
OUT: N

IN: Also CCOC(=O)c1sc2c(C(=O)OCC)n3cc(C)cc(C)c3c2c1O ?
OUT: N

IN: Also Clc1cc(-c2ccccc2)nc2ccccc12 ?
OUT: N

IN: Also CCC(C)NC(=S)N/N=C(\C)c1ccccn1 (stereo not given) ?
OUT: Y

IN: Also NS(=O)(=O)c1nnc(NS(=O)(=O)c2ccccc2C(=O)O)s1 ?
OUT: N

IN: Also COc1ccc(N2C(=O)C(=O)N(c3ccc(/N=N\c4ccccc4)cc3)C2=S)cc1 ?
OUT: N

IN: Also O=c1[nH]c(=O)n(C2CC(O)C(CO)O2)cc1C(F)(C(F)(F)F)C(F)(F)F (stereo not given) ?
OUT: N

IN: Also COc1cc(CNc2nc3c(N)cc(C(F)(F)F)cc3nc2-c2ccccc2)cc(OC)c1OC ?
OUT: N

###

Overview of reported GI50 across a group of compounds:
tested on: HOP-62; test: NCI tumour cell line growth inhibition, 48 h
Calls of active or inactive are those of the source. Cut-off read from the data, not from the text of the source: active = GI50 up to about 1.1 µM and inactive = higher.

COMPOUND: CC(NS(C)(=O)=O)c1ccccc1 (stereo not given)
GI50: > 100 µM (inactive)

COMPOUND: Cn1c(-c2ccc(/N=N/Nc3ccc(-c4n[nH]c(=S)n4C)cc3)cc2)n[nH]c1=S
GI50: 20.3 µM (inactive)

COMPOUND: COP(=O)(OC)/C(=C/c1cn(C(c2ccccc2)(c2ccccc2)c2ccccc2)cn1)NC=O
GI50: 17.7 µM (inactive)

COMPOUND: OCC1C2CCC3(OCCO3)C12 (stereo not given)
GI50: > 100 µM (inactive)

COMPOUND: O=C(Cn1c2ccc(Br)cc2c2nc3ccccc3nc21)NC1CCCCC1
GI50: > 100 µM (inactive)

IN: Entry CCCCCC(=O)CCCCCCCC(O)CC(=O)OCC (stereo not given) has what GI50?
OUT: > 100 µM (inactive)

IN: Also O=C(O)c1ccc([C@@H]2C(=O)N(O)[C@@H]3C=CC[C@@H]32)cc1 ?
OUT: > 100 µM (inactive)

IN: Also C=C(C)CCN[Si](c1ccccc1)(c1ccccc1)C(C)(C)C ?
OUT: 17.1 µM (inactive)

IN: Also CC(=O)OCC1OC(n2c3c(c(-c4ccc(Cl)cc4)c(C#N)c2=S)C(=O)CC(C)(C)C3)C(OC(C)=O)C(OC(C)=O)C1OC(C)=O (stereo not given) ?
OUT: 42 µM (inactive)

IN: Also O=C1C=C(N2CCN(c3ncccn3)CC2)C(=O)c2c(O)ccc(O)c21 ?
OUT: 49.2 µM (inactive)

###

Overview of reported GI50 across a group of compounds:
test system: HOP-18; experiment: NCI tumour cell line growth inhibition, 48 h
The source made the active and inactive calls. No stated cut-off is given here; in the data, active = GI50 up to about 1.1 µM and inactive = higher.

IN: Entry Cc1ccc(S(=O)OCC23CC4CC(CC(C4)C2)C3)cc1 (stereo not drawn) has what GI50?
OUT: > 100 µM (inactive)

IN: Also CCOC(OC1=C(C#N)CCCC1)C(CC)[Se]c1ccccc1 (stereo not drawn) ?
OUT: 16.4 µM (inactive)

IN: Also NS(=O)(=O)c1ccc(NC(=O)CC(=O)Nc2ccc(S(N)(=O)=O)cc2)cc1 ?
OUT: > 100 µM (inactive)

###

test system: SK-MEL-28; assay: NCI tumour cell line growth inhibition, 48 h
Activity calls are given as the source filed them. No stated cut-off is given here; in the data, active = GI50 up to about 1.1 µM and inactive = higher.
Respond with a class label; see active, inactive

COMPOUND: COc1cc(CNc2nc3ccccc3nc2C(=O)O)cc(OC)c1OC
QUALITATIVE LABEL: inactive
//
COMPOUND: COc1cc2c3c(c1)c1cc(OC)c(OC)cc1c[n+]3CC2
QUALITATIVE LABEL: inactive
//
COMPOUND: COc1cc(O)c2c(=O)cc(-c3ccc(O)cc3O)oc2c1CC=C(C)C
QUALITATIVE LABEL: inactive
//
COMPOUND: CCN(CC)CCCn1c(=O)c2ccccc2n2c3c(=O)n(C)c(=O)n(C)c3nc12
QUALITATIVE LABEL: inactive
//
COMPOUND: COc1cc2c3c(n(C)c(=O)c2cc1OC)-c1cc2c(cc1/C3=C\CCCCCBr)OCO2
QUALITATIVE LABEL: active

IN: # lookup: test call for COc1cc(/C=C/C(=O)C(C)(C)C)cc(OC)c1OC
OUT: inactive

IN: Also CC(=O)O[C@H]1C(=O)[C@]2(C)[C@@H](OC(=O)OCC(O)CO)C[C@H]3OC[C@@]3(OC(C)=O)[C@H]2[C@H](OC(=O)c2ccccc2)[C@]2(O)C[C@H](OC(=O)[C@H](O)[C@@H](NC(=O)c3ccccc3)c3ccccc3)C(C)=C1C2(C)C (stereo partly drawn) [PACLITAXEL CERIBATE] ?
OUT: inactive

IN: Also CC1CC(=O)C(C(O)CC2CC(=O)N(c3ccccc3)C(=O)C2)C(C)C1 (stereo not drawn) ?
OUT: inactive
